Biological target: human MCH receptor 1 (MCHR1) (Homo sapiens)
Construct: expressed in transfected cells; host or cells: CHO cell clone 57 (membrane fraction)
Sequence (Q99705 whole entry): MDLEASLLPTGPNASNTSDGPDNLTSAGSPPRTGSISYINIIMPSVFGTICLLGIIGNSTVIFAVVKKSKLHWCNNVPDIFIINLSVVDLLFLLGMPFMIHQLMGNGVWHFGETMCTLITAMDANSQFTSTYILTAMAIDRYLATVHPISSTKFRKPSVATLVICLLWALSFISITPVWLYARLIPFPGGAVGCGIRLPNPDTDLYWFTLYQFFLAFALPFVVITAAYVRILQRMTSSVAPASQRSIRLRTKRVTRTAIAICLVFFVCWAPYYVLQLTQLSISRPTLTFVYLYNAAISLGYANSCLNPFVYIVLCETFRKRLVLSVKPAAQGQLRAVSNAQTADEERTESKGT
Assay: human MCH receptor 1 (MCHR1) competitive binding assay with [125I]-MCH(4-19)
Details: test compound 0.1 μM, human MCHR1-expressing CHO cell membrane fraction, read-out: Binding inhibition rate % (0.1 μM)
Experimental endpoint: inhibition at 0.1 µM
I'd appreciate it if you included the unit after the number.

Result for CCc1nc2ccc(-n3ccc(OCc4csc(F)c4)cc3=O)cc2n1C , tested on human MCH receptor 1 (MCHR1) (Homo sapiens), inhibition at 0.1 µM: 71%

###

Target: human MCHR1 (Homo sapiens, UniProt Q99705)
Construct: expressed in transfected cells; host or cells: CHO dhfr- cells, clone #4
Sequence (Q99705 whole entry): as above
Experiment: MCH receptor 1 antagonistic activity, Ca2+ mobilization assay
Type: cell-based
Details: CHO, test compound 0.1 μM; human MCHR1-expressing CHO cells (clone #4); ligand MCH(4-19) 2 nM; read-out: Inhibitory rate % (0.1 μM)
compounds and their reported inhibition at 0.1 µM
Write it as a number; the unit % goes unstated.

Cn1c(C2CC2)nc2ccc(-n3ccc(OCc4ccccc4F)cc3=O)cc21 [Example 71] | 43
Cn1c([C@@H]2C[C@@H]2C(C)(C)O)nc2ccc(-n3ccc(OCc4ccc(Cl)cc4)cc3=O)cc21 (racemic) [Example 80] | 99
Cc1c(C2CC2)nc2ccc(-n3ccc(OCc4csc(Br)n4)cc3=O)cn12 [Example 189] | 100
Cn1c(C2CC2)nc2ccc(-n3ccc(OCc4nc(C(F)(F)F)cs4)cc3=O)cc21 [Example 256] | 97
Cn1c(C2CC2)nc2ccc(-n3ccc(OCc4cc(F)c(F)s4)cc3=O)cc21 [Example 239] | 92

Record CCc1nc2ccc(-n3ccc(OCc4ccsc4)cc3=O)cc2n1C [Example 235] , field inhibition at 0.1 µM: 93

Record Cn1c(C2CC2)nc2ccc(-n3ccc(OCc4csc(C5CC5)n4)cc3=O)cc21 [Example 285] , field inhibition at 0.1 µM: 58

Record CCc1nc2ccc(-n3ccc(OCc4csc(C(F)F)n4)cc3=O)cc2n1C [Example 288] , field inhibition at 0.1 µM: 87
